assay: log P determination by HPLC (EEC Directive 79/831 Annex V.A8, gradient method); assay type: physicochemical; conditions: HPLC, gradient method, acetonitrile/0.1% strength aqueous phosphoric acid or formic acid; read-out: Physical data (logP)
Catalogue of compounds with associated chromatographic logP
Give the value as a plain number.

Per the records, this compound ( C=CCN(C)C(=O)/C=C/c1c(-c2ccc(Cl)cc2)nc2sc(C(F)(F)F)nn12 ) has chromatographic logP equal to 3.95

Per the records, this compound ( O=C(/C=C/c1c(-c2ccccc2Cl)nc2sc(C(F)(F)F)nn12)NC1CC1 ) has chromatographic logP equal to 2.88

Per the records, this compound ( CC(NC(=O)/C=C/c1c(-c2ccccc2Cl)nc2sc(C(F)(F)F)nn12)c1ccccn1 (centres unmarked) ) has chromatographic logP equal to 2.39

Per the records, this compound ( CCC(CC)NC(=O)/C=C/c1c(-c2ccccc2Cl)nc2sc(C(F)(F)F)nn12 ) has chromatographic logP equal to 3.72

Per the records, this compound ( O=C(/C=C/c1c(-c2ccccc2Cl)nc2sc(C(F)(F)F)nn12)Nc1ccc(F)cc1 ) has chromatographic logP equal to 4.08

Per the records, this compound ( CCCC(C)NC(=O)/C=C/c1c(-c2ccccc2Cl)nc2sc(C(F)(F)F)nn12 (centres unmarked) ) has chromatographic logP equal to 3.85

Per the records, this compound ( CCC(C)NC(=O)/C=C/c1c(-c2ccccc2Cl)nc2sc(C(F)(F)F)nn12 (centres unmarked) ) has chromatographic logP equal to 3.46

Per the records, this compound ( CC(NC(=O)/C=C/c1c(-c2ccccc2Cl)nc2sc(C(F)(F)F)nn12)C(F)(F)F (centres unmarked) ) has chromatographic logP equal to 3.63

Per the records, this compound ( O=C(/C=C/c1c(-c2cccc(Cl)c2)nc2sc(C(F)(F)F)nn12)N1CCOCC1 ) has chromatographic logP equal to 3.31

Hey, just so you know, these numbers are from patent US20090118286A1.
